Where do these numbers come from? They come from paper PMC10728118.

biological target: His-YY1 full-length (UniProt P25490 1-414); assay: fluorescence polarisation; EMSA: 10 mM HEPES-KOH, 12 mM Tris-HCl, 50 mM NaCl, 50 mM KCl, 5 mM MgCl2, 100 uM ZnCl2, 0.01% NP-40, 5% glycerol, 2.5 mM DTT, pH 7.4, 25 C, 2.5 nM probe; FP: 50 mM Tris-HCl, 100 mM KCl, 2.5 mM MgCl2, 100 uM ZnCl2, pH 7.4, 25 C; settings: protein: recombinant; tags: His; label: FAM
Sequence (P25490 whole entry): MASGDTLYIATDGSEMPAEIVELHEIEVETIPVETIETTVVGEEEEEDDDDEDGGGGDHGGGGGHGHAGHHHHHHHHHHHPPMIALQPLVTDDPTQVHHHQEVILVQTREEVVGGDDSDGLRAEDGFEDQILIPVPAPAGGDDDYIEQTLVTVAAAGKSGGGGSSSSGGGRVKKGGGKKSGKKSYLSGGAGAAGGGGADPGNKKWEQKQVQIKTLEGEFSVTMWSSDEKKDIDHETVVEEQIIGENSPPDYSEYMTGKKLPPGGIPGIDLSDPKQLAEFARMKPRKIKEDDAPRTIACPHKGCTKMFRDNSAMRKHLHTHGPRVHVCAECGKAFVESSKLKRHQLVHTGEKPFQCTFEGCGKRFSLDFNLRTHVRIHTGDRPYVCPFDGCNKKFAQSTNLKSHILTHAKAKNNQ
READOUT LABEL: Kd (nM)
Numbers only, in nM.

Request: Supply reported Kd belonging to this binder: CGGGGCCGGGGCCGGGGCCGGGGCCGGGGCCGGGGCCGGGGCCGGGGCCG (ssRNA) [FAM-(GGGGCC)8 RNA]
Result: 45.3
